tested on: MS2 coat protein; assay: apparent KD of MS2 coat protein; designed switch direction (-1 OFF switch, 1 ON switch): -1; higher = weaker reporter binding; settings: input ligand: FMN 200 uM
Observed Property: apparent KD of MS2 coat protein (nM)
Numbers only, in nM.

Please review the entries below; each comes with its answer.
[[record]]
monomer_sequence = "GGUCGUCAAGUCAGGAUAUCGUUUGGUCGGUGUAACGAGAAGGGACAUGAGGAUCACCCAUGUCGUCUCAUCAG [Ex4 #28] (Eterna round: R97, puzzle: Brourd's mod of Exclusion 4)"
meas_value = 29.3

[[record]]
monomer_sequence = "CAGUACAGAGGAUAUACAUGAGGAUCACCCAUGUGUUUCAGCUAGGAAACUAGCGAAUGUAGAAGGCUGUACUG [jl-ex3-4.24 salish99 mod] (Eterna round: R97, puzzle: Exclusion 3)"
meas_value = 178

[[record]]
monomer_sequence = "GCCUUAUCCGUCAGGAUAUACAGCCGCUCCCUGUUGUAGAAGGGACAUGAGGAUCACCCAUGUACGUACCACUG [alecazam7] (Eterna round: R97, puzzle: Brourd's mod of Exclusion 4)"
meas_value = 28.7

[[record]]
monomer_sequence = "UGUAGAGUGGUAGGAUAUCCGUCUGUUUCAGUCGGAGAAGGGCCACAGUCACUGGGUCCUAAUAUCAUGGAGACCUGAUCUACU [pwkr exNG1 F6.14] (Eterna round: R96, puzzle: Exclusion NG 1)"
meas_value = 599


Query sequence follows.
Q: What does the data say about its apparent KD of MS2 coat protein? Entry: AUAAAUCAUGUAGGAUAUGCGUAGCGAAGCUAUGCAGAAGGACAUGAGGAUCACCCAUGUCUUUCCGUCUGCGUACAGACGGAA [Mat - Exclusion NG 1 - Mod of JL - D42] (Eterna round: R96, puzzle: Exclusion NG 1)
A: 149

---

tested on: MS2 coat protein; experiment: apparent KD of MS2 coat protein; designed switch direction (-1 OFF switch, 1 ON switch): -1; higher = weaker reporter binding; details: input ligand: FMN 200 uM
Observed Property: apparent KD of MS2 coat protein (nM)
Give bare numbers, in nM.

Please review the entries below; each comes with its answer.
[[record]]
monomer_sequence = "GGUCAUCAAGUCAGGAUAUCGUCUGGUCGGUCUGGCGAGAAGGGACAUGAGGAUCACCCAUGUCGACUCAUCAG [Ex4 #11] (Eterna round: R97, puzzle: Brourd's mod of Exclusion 4)"
observed_property = "apparent KD of MS2 coat protein"
meas_value = 29.2

[[record]]
monomer_sequence = "AAAAAGGCAGGAUAUACGAGUCAAAGAAAAGACAAAAGGAGACAUGAGGAUCACCCAUGUAGAAGGGCCAAAAA [Fiskers exclusion D2 62% 5] (Eterna round: R96, puzzle: Exclusion 2)"
observed_property = "apparent KD of MS2 coat protein"
meas_value = 85.2

[[record]]
monomer_sequence = "GAAACGGGUGCACCUCAGUCACAUGAGGAUCACCCAUGUUCUGAGGAUAUGCAUCCAAACGGAACGCAGAAGGCGGAACGUAAC [Beisoner] (Eterna round: R96, puzzle: Exclusion NG 3)"
observed_property = "apparent KD of MS2 coat protein"
meas_value = 14.6

[[record]]
monomer_sequence = "CAAAAUGUAUAAGGAUAUCUCGCCAAUAAAGGCAGAGAAGGUAUACCCACUUGAGGAUCACCCAAGUCACGUGUGCCUGGUGGA [Mutated MS2 EX1.25] (Eterna round: R96, puzzle: Exclusion NG 1)"
observed_property = "apparent KD of MS2 coat protein"
meas_value = 9.27

[[record]]
monomer_sequence = "UUACGUUUAGAGGAUAUAUUAAGGAAGGUAACGAUAGAAGGCUAGACAUGAGGAUCACCCAUGUAUAUAGGGAU [JR_Ex6_Sub071] (Eterna round: R97, puzzle: Exclusion 6)"
observed_property = "apparent KD of MS2 coat protein"
meas_value = 141


Okay, here is my list. What is apparent KD of MS2 coat protein for each of these?
1. UCGAUGUAAGGAUAUCGUGCAAGUUUCAAAAGAGGCUUGUGCGAGAAGGUACAUGAGGAUCACCCAUGUAGGUU [Omei Ex4 B7] (Eterna round: R97, puzzle: Exclusion 4)
2. UGACAGCUAGGAUAUGGGCGUGCUUACAUGAGGAUCACCCAUGUGGUAUCUGAGUAGCACCCAGAAGGAGCCCGCG [Eternabot (L2) Solution 87] (Eterna round: R97, puzzle: Exclusion 5)
3. GGUGAAGCAGGAUAUGUAUCGGCAUACAUGAGGAUCACCCAUGUCAUGUAGAUACCGCAUAUAGAAGGGCUUCACC [Exclusion 5 (FMN-MS2 slide v.5)] (Eterna round: R97, puzzle: Exclusion 5)
4. UUGAUGUGAGGAUAUAUUUUGUGUUUUCUUUAUGUUUUAUAACUUGAGGAUCACCCAAGUAGAAGGCGCUACGU [JR_Ex2_Sub065] (Eterna round: R97, puzzle: Exclusion 2)
5. UCGGAUAGAGGAUAUACAUGAGGAUCACCCAUGUGGUCAAGCGGGUACGCCCAGCGAGGUAGAAGGCUAUCCGG [Eternabot (L1) Solution 16] (Eterna round: R97, puzzle: Exclusion 3)

A:
1. 207
2. 1350
3. 41.1
4. 119
5. 407
